Ref: patent US6482797B1

# Assay target: C-terminal site of human angiotensin-converting enzyme (Active C-terminal ACE) (Homo sapiens, UniProt P12821, H390K/H394K)
# Sequence (P12821 30-1306 H390K/H394K): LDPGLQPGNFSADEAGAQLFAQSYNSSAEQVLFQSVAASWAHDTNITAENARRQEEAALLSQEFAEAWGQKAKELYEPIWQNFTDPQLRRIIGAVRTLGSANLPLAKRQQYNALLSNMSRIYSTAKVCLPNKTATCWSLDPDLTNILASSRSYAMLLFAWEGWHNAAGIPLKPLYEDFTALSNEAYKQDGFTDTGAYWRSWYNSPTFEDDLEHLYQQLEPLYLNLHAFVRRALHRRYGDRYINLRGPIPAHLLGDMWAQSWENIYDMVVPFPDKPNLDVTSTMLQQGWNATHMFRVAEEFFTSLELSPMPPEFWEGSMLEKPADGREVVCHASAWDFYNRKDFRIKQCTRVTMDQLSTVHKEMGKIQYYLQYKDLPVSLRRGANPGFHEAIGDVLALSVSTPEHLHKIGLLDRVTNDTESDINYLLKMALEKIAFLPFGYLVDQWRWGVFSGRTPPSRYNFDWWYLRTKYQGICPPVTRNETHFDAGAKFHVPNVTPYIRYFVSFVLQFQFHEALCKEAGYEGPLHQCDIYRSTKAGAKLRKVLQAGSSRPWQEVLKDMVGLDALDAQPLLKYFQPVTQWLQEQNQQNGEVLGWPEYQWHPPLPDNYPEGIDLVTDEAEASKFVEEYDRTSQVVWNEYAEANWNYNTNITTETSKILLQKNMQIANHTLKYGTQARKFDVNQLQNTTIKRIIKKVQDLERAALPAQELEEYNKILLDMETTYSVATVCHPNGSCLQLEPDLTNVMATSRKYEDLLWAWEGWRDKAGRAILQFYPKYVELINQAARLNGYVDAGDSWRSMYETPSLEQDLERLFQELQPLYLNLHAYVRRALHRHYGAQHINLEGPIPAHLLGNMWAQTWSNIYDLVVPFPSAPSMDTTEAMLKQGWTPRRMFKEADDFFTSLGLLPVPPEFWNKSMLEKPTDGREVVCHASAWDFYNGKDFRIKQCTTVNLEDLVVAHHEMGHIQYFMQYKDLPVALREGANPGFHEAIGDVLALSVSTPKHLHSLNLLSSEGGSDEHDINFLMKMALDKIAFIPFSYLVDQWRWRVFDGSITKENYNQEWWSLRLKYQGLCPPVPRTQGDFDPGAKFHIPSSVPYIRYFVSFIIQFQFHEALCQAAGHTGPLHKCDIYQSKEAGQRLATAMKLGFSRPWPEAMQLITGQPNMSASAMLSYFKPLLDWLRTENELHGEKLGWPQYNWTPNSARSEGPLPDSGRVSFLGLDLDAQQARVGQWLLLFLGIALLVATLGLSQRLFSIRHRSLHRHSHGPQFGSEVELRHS
# Assay remarks: ACE inhibition, quenched fluorescence substrate, C-terminal mutant (N-terminal site inactive)
# Measurement setup: C-terminal mutant of ACE from CHO cells
pKi: −log10 of the molar value.
Value type: pKi

A: CC(=O)N[C@@H](CC(=O)O)C(=O)NC(Cc1ccccc1)P(=O)(O)CC(C)C(=O)N[C@@H](C)C(=O)O (stereo partly shown)
B: CC(CP(=O)(O)C(Cc1ccccc1)NC(=O)[C@@H](N)CC(=O)O)C(=O)N[C@@H](C)C(=O)O (stereo partly shown)
C: CC(CP(=O)(O)C(Cc1ccccc1)NC(=O)[C@@H](N)CC(=O)O)C(=O)N[C@@H](C)C(N)=O (stereo partly shown)
D: CC(=O)N[C@@H](C)C(=O)NC(Cc1ccccc1)P(=O)(O)CC(C)C(=O)N[C@@H](C)C(N)=O (stereo partly shown)
Query: Rank the listed compounds, smallest pKi first and largest last. Rank them, then answer with their labels in that order.
Result: C, D, B, A

----------
# Assay target: N-terminal site of human angiotensin-converting enzyme (Active N-terminal ACE) (Homo sapiens, UniProt P12821, H988K/H992K)
# Construct: made in house; host or cells: CHO cells
# Sequence (P12821 30-1306 H988K/H992K): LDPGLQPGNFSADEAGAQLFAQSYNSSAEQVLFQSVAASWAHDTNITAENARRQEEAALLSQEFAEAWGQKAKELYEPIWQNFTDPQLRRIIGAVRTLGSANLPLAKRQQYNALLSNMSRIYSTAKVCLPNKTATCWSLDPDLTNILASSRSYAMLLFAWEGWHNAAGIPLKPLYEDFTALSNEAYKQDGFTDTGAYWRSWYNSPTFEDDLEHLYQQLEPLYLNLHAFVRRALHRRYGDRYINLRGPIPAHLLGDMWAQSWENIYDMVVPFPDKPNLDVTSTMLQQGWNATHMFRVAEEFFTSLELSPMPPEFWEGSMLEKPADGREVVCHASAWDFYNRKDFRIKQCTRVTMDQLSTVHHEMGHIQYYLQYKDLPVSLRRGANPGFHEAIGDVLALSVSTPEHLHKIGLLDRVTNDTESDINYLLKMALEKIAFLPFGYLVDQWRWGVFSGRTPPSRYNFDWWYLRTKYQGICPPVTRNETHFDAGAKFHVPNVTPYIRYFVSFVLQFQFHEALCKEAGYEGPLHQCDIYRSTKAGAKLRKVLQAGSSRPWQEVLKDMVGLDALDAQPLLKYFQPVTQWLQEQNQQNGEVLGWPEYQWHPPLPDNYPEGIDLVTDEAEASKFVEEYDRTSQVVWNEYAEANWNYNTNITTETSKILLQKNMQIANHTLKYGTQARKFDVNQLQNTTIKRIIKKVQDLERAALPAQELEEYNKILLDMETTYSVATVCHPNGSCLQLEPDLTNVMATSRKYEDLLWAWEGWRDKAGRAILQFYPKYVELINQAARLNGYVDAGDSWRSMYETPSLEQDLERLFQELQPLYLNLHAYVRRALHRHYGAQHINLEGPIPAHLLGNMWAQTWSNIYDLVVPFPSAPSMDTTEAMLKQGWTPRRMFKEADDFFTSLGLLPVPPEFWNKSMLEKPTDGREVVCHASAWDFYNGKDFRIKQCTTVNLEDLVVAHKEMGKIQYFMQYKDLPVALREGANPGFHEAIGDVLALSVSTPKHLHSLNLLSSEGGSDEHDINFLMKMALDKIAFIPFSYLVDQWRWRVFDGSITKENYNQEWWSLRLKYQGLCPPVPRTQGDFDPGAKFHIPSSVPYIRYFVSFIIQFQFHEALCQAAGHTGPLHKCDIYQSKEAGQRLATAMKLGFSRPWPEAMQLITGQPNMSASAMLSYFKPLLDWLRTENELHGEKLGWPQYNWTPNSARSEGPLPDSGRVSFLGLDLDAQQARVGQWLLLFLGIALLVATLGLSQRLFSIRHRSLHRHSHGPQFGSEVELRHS
# Assay remarks: ACE inhibition, quenched fluorescence substrate, N-terminal mutant (C-terminal site inactive)
# Assay type: biochemical
# Measurement setup: N-terminal mutant of ACE from CHO cells; read-out: Ki Active N-terminal ACE
pKi: −log10 of the molar value.
Value type: pKi

{"Compound": "CC(=O)N[C@@H](CC(=O)O)C(=O)NC(Cc1ccccc1)P(=O)(O)CC(C)C(=O)N[C@@H](C)C(=O)O (stereo partly drawn)", "Value type": "pKi", "Value reported": 8.70}
{"Compound": "CC(CP(=O)(O)C(Cc1ccccc1)NC(=O)[C@@H](N)CC(=O)O)C(=O)N[C@@H](C)C(=O)O (stereo partly drawn)", "Value type": "pKi", "Value reported": 8.70}
{"Compound": "CC(=O)N[C@@H](CC(=O)O)C(=O)N[C@@H](Cc1ccccc1)P(=O)(O)C[C@@H](C)C(=O)N[C@@H](C)C(N)=O [RXP 407, Ac-Asp-(R)Phe(PO2CH2)-(S)Ala-Ala-NH2]", "Value type": "pKi", "Value reported": 7.92}
{"Compound": "CC(=O)N[C@@H](CC(=O)O)C(=O)NC(Cc1ccccc1)P(=O)(O)CC(C)C(=O)N[C@@H](C)C(N)=O (stereo partly drawn)", "Value type": "pKi", "Value reported": 7.60}

I: CC(CP(=O)(O)C(Cc1ccccc1)NC(=O)[C@@H](N)CC(=O)O)C(=O)N[C@@H](C)C(N)=O (stereo partly drawn)
II: CC(=O)N[C@@H](C)C(=O)NC(Cc1ccccc1)P(=O)(O)CC(C)C(=O)N[C@@H](C)C(N)=O (stereo partly drawn)
Query: Looking at I and II , which one comes out lower in pKi terms? Please indicate the selected item by its label.
Result: II
(II: 7.82, I: 8.30)

----------
# Assay target: N-terminal site of human angiotensin-converting enzyme (Active N-terminal ACE) (Homo sapiens, UniProt P12821, H988K/H992K)
# Construct: made in house; host or cells: CHO cells
# Assay remarks: ACE inhibition, quenched fluorescence substrate, N-terminal mutant (C-terminal site inactive)
# Assay type: biochemical
# Measurement setup: value drawn in plasma concentration figure; read-out: Ki of RXP 407 (dotted curve of FIG. 7)
Value type: pKi
Please report pKi as the negative decimal logarithm of the molar concentration, giving only the number.

Query: Suppose we examine the compound CC(=O)N[C@@H](CC(=O)O)C(=O)N[C@@H](Cc1ccccc1)P(=O)(O)C[C@@H](C)C(=O)N[C@@H](C)C(N)=O [RXP 407, Ac-Asp-(R)Phe(PO2CH2)-(S)Ala-Ala-NH2] ; what pKi value has been reported?
Result: 7.70
